Listing: IC90 of selected molecules
tested on: M. tuberculosis H37Rv growth inhibition, 7H9 media; experiment: M. tuberculosis growth inhibition, HTS (AID 449762); settings: measured here: IC90 growth inhibition;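 note: bacterial growth assessed after seven days of incubation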
Records with an inconclusive call do not appear.
property.label: IC90 (µM)

> print(dat)
                                    molecule                           target.of.assay  property.label  unit.text  result.qualifier  reading
 1  CCc1nc(N2CCN(C(C)=O)CC2)c2c3c(sc2n1)CC(C(C)(C)C)CC3 (stereo not drawn)  M. tuberculosis H37Rv growth inhibition, 7H9 media            IC90         µM                 =     14.1
 2          C/C(=N\Nc1nc2c(s1)CCCC2)c1ccccc1  M. tuberculosis H37Rv growth inhibition, 7H9 media            IC90         µM                 =     34.4
 3      COC(=O)Cn1nc(-c2ccccc2)c2cc(Cl)ccc21  M. tuberculosis H37Rv growth inhibition, 7H9 media            IC90         µM                 =     51.7
 4        C=CCS/C(N)=N\N=C\c1c(O)ccc2ccccc12  M. tuberculosis H37Rv growth inhibition, 7H9 media            IC90         µM                 =     48.6
 5  CC(C)(C)NC(=O)C(c1c[nH]c2ccccc12)N(C(=O)Cn1nnc(-c2ccc(F)cc2)n1)c1cccc(O)c1 (stereo not drawn)  M. tuberculosis H37Rv growth inhibition, 7H9 media            IC90         µM                 >      100
 6  CSc1nn(-c2ccc(C(=O)OCC(=O)NC(=O)NC(C)C)cc2)c(=S)s1  M. tuberculosis H37Rv growth inhibition, 7H9 media            IC90         µM                 =     25.9
 7      CCCCN(C)C(=O)Cc1c(OC)ccc2cc(Br)ccc12  M. tuberculosis H37Rv growth inhibition, 7H9 media            IC90         µM                 =     29.2
 8  COc1cc(NC(C)CCCN)c2ncccc2c1 (stereo not drawn)  M. tuberculosis H37Rv growth inhibition, 7H9 media            IC90         µM                 =     13.9
 9  C=CCOc1ccc(C2=NOC(C(=O)Nc3ccc4c(c3)OCCO4)C2)cc1 (stereo not drawn)  M. tuberculosis H37Rv growth inhibition, 7H9 media            IC90         µM                 =     23.1
10                  Cc1cc(Cl)ccc1OCCCC(=O)NO  M. tuberculosis H37Rv growth inhibition, 7H9 media            IC90         µM                 >      100
11  O=C(OCc1ccccc1)c1cccc(-c2nnn(Cc3ccccc3)n2)c1  M. tuberculosis H37Rv growth inhibition, 7H9 media            IC90         µM                 >      100
12  CCOc1ccc(NC(=S)Nc2cc(-c3ccccc3)[nH]n2)cc1  M. tuberculosis H37Rv growth inhibition, 7H9 media            IC90         µM                 >      100
13  CC(C)(C)c1ccc(OCCC(=O)OCC(=O)NC(=O)NC2CCCC2)cc1  M. tuberculosis H37Rv growth inhibition, 7H9 media            IC90         µM                 =     8.58
14  COCCCNC(=O)/C(C#N)=C/c1c(N2CCN(c3cccc(Cl)c3)CC2)nc2c(C)cccn2c1=O  M. tuberculosis H37Rv growth inhibition, 7H9 media            IC90         µM                 >      100
15      CCc1ccc(NCc2ccc(OC)c(Cn3ccnc3)c2)cc1  M. tuberculosis H37Rv growth inhibition, 7H9 media            IC90         µM                 =     23.9
16  O=c1c2cc(Br)cc(Br)c2oc2nc3n(c(=O)c12)CCCS3  M. tuberculosis H37Rv growth inhibition, 7H9 media            IC90         µM                 =     13.1
17  N/C(=N\OC(=O)Nc1ccc(Cl)c(Cl)c1)c1ncc(C(F)(F)F)cc1Cl  M. tuberculosis H37Rv growth inhibition, 7H9 media            IC90         µM                 =     45.8
18  CC(=O)c1c(C)n(C)c2ccc(OC(=O)c3ccc([N+](=O)[O-])cc3)cc12  M. tuberculosis H37Rv growth inhibition, 7H9 media            IC90         µM                 >      100
19  COc1ccccc1C(=O)NC(=S)/C=C1/N(C)c2ccccc2C1(C)C  M. tuberculosis H37Rv growth inhibition, 7H9 media            IC90         µM                 =     43.9
20  Oc1ccc(-[n+]2c(-c3ccccc3)cc(-c3ccccc3)cc2-c2ccccc2)cc1  M. tuberculosis H37Rv growth inhibition, 7H9 media            IC90         µM                 =     18.8
21  COc1ccc(-c2oc(NC(=O)CCl)c(C#N)c2-c2ccc(OC)cc2)cc1  M. tuberculosis H37Rv growth inhibition, 7H9 media            IC90         µM                 =     54.7
22  Cn1nc(C(C)(C)C)cc1NC(=O)Nc1cc(Cl)cc(Cl)c1  M. tuberculosis H37Rv growth inhibition, 7H9 media            IC90         µM                 =     26.3
23  CCN(CC)C(=O)c1cc([N+](=O)[O-])cc2c1-c1ccc([N+](=O)[O-])cc1C2=C(C#N)C#N  M. tuberculosis H37Rv growth inhibition, 7H9 media            IC90         µM                 =     23.8
24    COc1ccc(-c2cc(-c3ccc(OC)cc3)[nH]n2)cc1  M. tuberculosis H37Rv growth inhibition, 7H9 media            IC90         µM                 =        1
25  Nc1c(N(CCC2=CCCCC2)C(=O)c2ccc([N+](=O)[O-])o2)c(=O)[nH]c(=O)n1Cc1ccccc1  M. tuberculosis H37Rv growth inhibition, 7H9 media            IC90         µM                 =     30.2
26  O=C(Nc1nnc(C2=COCCO2)o1)c1ccc(Cc2ccccc2)cc1  M. tuberculosis H37Rv growth inhibition, 7H9 media            IC90         µM                 =     9.81
27  CN(C)CCOc1ccc(-c2c(-c3ccsc3)sc3ccccc23)cc1  M. tuberculosis H37Rv growth inhibition, 7H9 media            IC90         µM                 =     15.5
28  CN(C)C(=O)c1ccc(NC(=O)COC(=O)c2cc3c(s2)CCCCC3)cc1  M. tuberculosis H37Rv growth inhibition, 7H9 media            IC90         µM                 >      100
29  Cc1ccc(Cn2c(C(CO)Nc3nc(-c4ccc(F)cc4)cs3)nc3ccccc32)cc1 (stereo not drawn)  M. tuberculosis H37Rv growth inhibition, 7H9 media            IC90         µM                 =     60.2
30  O=c1c(-c2cnn(-c3ccccc3)c2)coc2cc(O)ccc12  M. tuberculosis H37Rv growth inhibition, 7H9 media            IC90         µM                 >      100
31        CCN(CC)c1ccc2nc3ccccc3[n+](CC)c2c1  M. tuberculosis H37Rv growth inhibition, 7H9 media            IC90         µM                 =     5.66
32  CCCCn1c(=O)c(C(=O)Nc2ncccc2C)c(O)c2ccccc21  M. tuberculosis H37Rv growth inhibition, 7H9 media            IC90         µM                 =     15.8
33  CC1CC(C)(C)Nc2ccc(OC(=O)c3ccco3)cc21 (stereo not drawn)  M. tuberculosis H37Rv growth inhibition, 7H9 media            IC90         µM                 =     16.4
34     CCCCCCC#Cc1ccc2c(c1)COc1c3ccccc3nn1-2  M. tuberculosis H37Rv growth inhibition, 7H9 media            IC90         µM                 >      100
35     O=c1cc(N=Nc2ccc(Cl)cc2)[nH]c(=O)[nH]1  M. tuberculosis H37Rv growth inhibition, 7H9 media            IC90         µM                 >      100
36  Cc1ccc(C(=O)c2oc3ccc(Cl)cc3c2NC(=O)CN2CCN(C)CC2)cc1  M. tuberculosis H37Rv growth inhibition, 7H9 media            IC90         µM                 =     17.8
37  COC(=O)c1ccc(CSc2nc(C(F)(F)F)c3c(c2C#N)CCC3)o1  M. tuberculosis H37Rv growth inhibition, 7H9 media            IC90         µM                 >      100
38            Oc1ccc(/C=N/NC(=S)N2CCOCC2)cc1  M. tuberculosis H37Rv growth inhibition, 7H9 media            IC90         µM                 =     6.19
39  O=C(Nc1cccc(-c2csc(Nc3ccc(Cl)cc3)n2)c1)c1cccc(C(F)(F)F)c1  M. tuberculosis H37Rv growth inhibition, 7H9 media            IC90         µM                 >      100
40  CCc1cc2c(=O)n(C(C)C(=O)OC3CCCCC3)cnc2s1 (stereo not drawn)  M. tuberculosis H37Rv growth inhibition, 7H9 media            IC90         µM                 =     27.8
41  OCC1(Cc2cccc(Cl)c2)CCCN(Cc2ccc3cc(F)ccc3n2)C1 (stereo not drawn)  M. tuberculosis H37Rv growth inhibition, 7H9 media            IC90         µM                 =     52.1
42  Cc1ccc(-n2cc(CNCCn3nc(C)cc3C)c(-c3ccc(F)cc3)n2)cc1  M. tuberculosis H37Rv growth inhibition, 7H9 media            IC90         µM                 =     9.36
43       CCOC(=O)CSCC(=O)N1CCC(Cc2ccccc2)CC1  M. tuberculosis H37Rv growth inhibition, 7H9 media            IC90         µM                 =     19.6
